Data provenance: patent US20120148607A1

target: T1, recombinant dimeric c-Met (R&D systems, 358-MT/CF) (human, UniProt P08581 25-932); test: SPR, Fab-containing periplasmic extract over immobilised c-Met, dissociation 2 min
T1 construct: Bought product; also called Fc-Met; recombinant c-Met
T1 sequence (P08581 25-932 limits assumed): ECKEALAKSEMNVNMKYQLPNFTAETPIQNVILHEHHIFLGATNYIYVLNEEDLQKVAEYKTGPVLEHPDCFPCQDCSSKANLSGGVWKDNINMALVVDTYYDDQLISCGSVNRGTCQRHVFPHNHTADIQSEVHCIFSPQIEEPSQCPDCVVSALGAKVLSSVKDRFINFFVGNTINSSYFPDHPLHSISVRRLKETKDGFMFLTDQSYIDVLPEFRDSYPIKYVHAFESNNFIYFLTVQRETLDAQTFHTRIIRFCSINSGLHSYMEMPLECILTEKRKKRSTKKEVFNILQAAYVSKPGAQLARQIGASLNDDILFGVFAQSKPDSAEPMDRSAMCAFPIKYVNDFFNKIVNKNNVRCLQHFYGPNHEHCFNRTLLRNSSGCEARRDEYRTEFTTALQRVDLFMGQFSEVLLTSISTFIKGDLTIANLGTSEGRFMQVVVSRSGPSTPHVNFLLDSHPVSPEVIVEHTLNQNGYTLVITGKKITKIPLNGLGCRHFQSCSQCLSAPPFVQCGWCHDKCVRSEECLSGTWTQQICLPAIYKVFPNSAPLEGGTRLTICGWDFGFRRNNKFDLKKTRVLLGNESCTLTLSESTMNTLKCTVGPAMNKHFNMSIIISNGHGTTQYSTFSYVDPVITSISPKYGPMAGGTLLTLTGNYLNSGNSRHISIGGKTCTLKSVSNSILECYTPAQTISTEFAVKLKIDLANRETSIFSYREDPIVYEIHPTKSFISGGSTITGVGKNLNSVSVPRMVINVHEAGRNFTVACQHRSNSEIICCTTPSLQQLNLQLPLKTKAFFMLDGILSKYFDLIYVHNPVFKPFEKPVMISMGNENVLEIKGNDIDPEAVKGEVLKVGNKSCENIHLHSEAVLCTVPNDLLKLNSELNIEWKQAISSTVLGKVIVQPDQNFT
Recorded Metric: koff (s⁻¹)
State just the number; it will be interpreted in s⁻¹.

The recorded koff for 40B8 Fab (Fab, V domains shown, Fab from the phage display library, tested as periplasmic extract) VH: EVQLVQPGAELRNPGASVKVSCKASGYTFTNYVIDWVRQAPGQGLEWMGRIDPENGGTRYAQKFQGRVTFTADTSTSTAYVELSNLRSEDTAVYYCARLEDYELAYDYWGQGTQVTVSS VL: DIVMTQTPSSVTASAGEKVTINCKSSQSVLLSSNQKNYLAWYQQRLGQSPRLLIYWASTRESGVPDRFSGSGSTTDFTLTISSFQPEDAAVYYCQQGVSFPLTFGQGTKVELK is 0.0013

The recorded koff for 36C4 Fab (Fab, V domains shown, Fab from the phage display library, tested as periplasmic extract) VH: QVQLVESGPGLVKPSQTLSLTCAVSGGSITTNYYYWSWIRQSPGKGLEWMGVIAYDGSTDYSPSLKSRTSISRDTSKNQFSLQLSSVTPEDTAVYYCARDVRVIATGWATANALDAWGQGTLVTVSS VL: QSVLTQPPSVSGSPGKTVTISCAGTSSDVGYGNYVSWYQQLPGTAPKLLIFAVSYRASGIPDRFSGSKSGNTAFLTISGLQSEDEADYYCASYRSSNNAAVFGGGTHLTVL is 0.00064

The recorded koff for 38H10 Fab (Fab, V domains shown, Fab from the phage display library, tested as periplasmic extract) VH: EVQLVQPGVELRNPGASVKVSCKASGYIFTMNSIDWVRQAPGQGLEWMGRIDPEDGGTKYAQKFQGRVTFTADTSTSTAYVELNSLRSEDTAVYYCARVDDYYLGYDYWGQGTQVTVSS VL: EIVMTQSPSSVTASAGEKVTINCKSSQSVLWRSNQKNYLAWYQQRLGQSPRLLISWASIRESGVPDRFSGSGSTTDFTLTISSFQPEDAAVYYCQQGYSFPYTFGSGTRLEIK is 0.0012
